assay.protocol: Cytotoxicity assay
Format: cell-based, human
condition.description: human, HEK293 human embryonic kidney cells, mean (n = 2), read-out: Cytotoxicity (IC50), concentration of compound at 50% cytotoxicity
quantity.measured: log10 IC50 (log10 of the value in µM)

compound	recorded.result
COc1c(Br)cc(/C=C/C(=O)NCCCNCCCCCCCCCCNCCCNC(=O)/C=C/c2cc(Br)c(OC)c(Br)c2)cc1Br.O=C(O)C(F)(F)F.O=C(O)C(F)(F)F [Compound 16e]	0.30
COc1c(Br)cc(/C=C/C(=O)NCCCNCCCCCCCCNCCCNC(=O)/C=C/c2cc(Br)c(OC)c(Br)c2)cc1Br.O=C(O)C(F)(F)F.O=C(O)C(F)(F)F [Compound 16d]	1.04
O=C(C=Cc1ccccc1)NCCCNCCCCCCCCCCCCNCCCNC(=O)C=Cc1ccccc1.O=C(O)C(F)(F)F.O=C(O)C(F)(F)F [Compound 13f]	1.30
COc1ccc(/C=C/C(=O)NCCCNCCCCCCCCCCCCNCCCNC(=O)/C=C/c2ccc(OC)c(Br)c2)cc1Br.O=C(O)C(F)(F)F.O=C(O)C(F)(F)F [Compound 15f]	0.05
COc1ccc(/C=C/C(=O)NCCCNCCCCCCCCCCCCNCCCNC(=O)/C=C/c2ccc(OC)cc2)cc1.O=C(O)C(F)(F)F.O=C(O)C(F)(F)F [Compound 14f]	1.39
COc1c(Br)cc(/C=C/C(=O)NCCCNCCCCCCCNCCCNC(=O)/C=C/c2cc(Br)c(OC)c(Br)c2)cc1Br.O=C(O)C(F)(F)F.O=C(O)C(F)(F)F [Compound 16c]	1.34
COc1ccc(/C=C/C(=O)NCCCNCCCCCCCCCCNCCCNC(=O)/C=C/c2ccc(OC)cc2)cc1.O=C(O)C(F)(F)F.O=C(O)C(F)(F)F [Compound 14e]	0.36
O=C(C=Cc1ccccc1)NCCCNCCCCCCCCCCNCCCNC(=O)C=Cc1ccccc1.O=C(O)C(F)(F)F.O=C(O)C(F)(F)F [Compound 13e]	1.39
CC/C(=C(\c1ccccc1)c1ccc(OCCN(C)C)cc1)c1ccccc1 [tamoxifen, reference compound]	1.38
COc1c(Br)cc(/C=C/C(=O)NCCCNCCCCCCNCCCNC(=O)/C=C/c2cc(Br)c(OC)c(Br)c2)cc1Br.O=C(O)C(F)(F)F.O=C(O)C(F)(F)F [Compound 16b]	1.19
COc1c(Br)cc(/C=C/C(=O)NCCCNCCCCCCCCCCCCNCCCNC(=O)/C=C/c2cc(Br)c(OC)c(Br)c2)cc1Br.O=C(O)C(F)(F)F.O=C(O)C(F)(F)F [Compound 16f]	0.16
COc1ccc(/C=C/C(=O)NCCCNCCCCCCCCNCCCNC(=O)/C=C/c2ccc(OC)c(Br)c2)cc1Br.O=C(O)C(F)(F)F.O=C(O)C(F)(F)F [Compound 15d]	1.29

Provenance of the data: paper PMC10377643
